# protocol-text: Antimicrobial residue concentration and depletion in muscle of treated pigs within the withdrawal period (LC-MS/MS or HPLC-FLD)
# Assay type: in vivo
# condition-context: hindquarter muscle, intramuscular; withdrawal period Day 7, pig; read-out: Concentration in Hindquarters
reported-property: concentration at 7 day of withdrawal period

compound: CN(C)[C@@H]1C(O)=C(C(N)=O)C(=O)[C@@]2(O)C(O)=C3C(=O)c4c(O)cccc4[C@@](C)(O)[C@H]3[C@H](O)[C@@H]12 [Oxytetracycline, oxytetracycline]
value-observed: 383 ng/g

----------
# protocol-text: Antimicrobial residue concentration and depletion in muscle of treated pigs within the withdrawal period (LC-MS/MS or HPLC-FLD)
# Type: in vivo
# condition-context: hindquarter muscle, intramuscular; withdrawal period Day 2, pig; read-out: Concentration in Hindquarters
reported-property: concentration at 2 day of withdrawal period (ng/g)

smiles-representation: CCN1CCN(c2cc3c(cc2F)c(=O)c(C(=O)O)cn3C2CC2)CC1
value-observed: 387
--
smiles-representation: COc1ccc(NS(=O)(=O)c2ccc(N)cc2)nn1
value-observed: 351
--
smiles-representation: CC1(C)S[C@@H]2[C@H](NC(=O)[C@H](N)c3ccc(O)cc3)C(=O)N2[C@H]1C(=O)O
value-observed: 25.3

----------
# protocol-text: Antimicrobial residue concentration and depletion in muscle of treated pigs within the withdrawal period (LC-MS/MS or HPLC-FLD)
# Assay type: in vivo
# condition-context: loin muscle, intramuscular; withdrawal period Day 4, pig; read-out: Concentration in Loins
reported-property: concentration at 4 day of withdrawal period (ng/g)

smiles-representation: CN(C)[C@@H]1C(O)=C(C(N)=O)C(=O)[C@@]2(O)C(O)=C3C(=O)c4c(O)cccc4[C@@](C)(O)[C@H]3[C@H](O)[C@@H]12
unit-of-measurement: ng/g
value-observed: 905

----------
# protocol-text: Antimicrobial residue concentration and depletion in blood (serum) of treated pigs within the withdrawal period (LC-MS/MS)
# Format: in vivo
# condition-context: over the sample bank of treated piglets
Reported Maximum concentration value in Blood values for the following compounds.

smiles-representation: CC1(C)S[C@@H]2[C@H](NC(=O)[C@H](N)c3ccc(O)cc3)C(=O)N2[C@H]1C(=O)O
Maximum concentration value in Blood / µg/kg: 73.00
--
smiles-representation: CN(C)[C@@H]1C(O)=C(C(N)=O)C(=O)[C@@]2(O)C(O)=C3C(=O)c4c(O)cccc4[C@@](C)(O)[C@H]3[C@H](O)[C@@H]12
Maximum concentration value in Blood / µg/kg: 615.00
--
smiles-representation: COc1ccc(NS(=O)(=O)c2ccc(N)cc2)nn1
Maximum concentration value in Blood / µg/kg: 4098.00
--
smiles-representation: CCN1CCN(c2cc3c(cc2F)c(=O)c(C(=O)O)cn3C2CC2)CC1
Maximum concentration value in Blood / µg/kg: 448.50

----------
# protocol-text: Antimicrobial residue concentration and depletion in muscle of treated pigs within the withdrawal period (LC-MS/MS or HPLC-FLD)
# Assay type: in vivo
# condition-context: forequarter muscle, intramuscular; withdrawal period Day 4, pig; read-out: Concentration in Forequarters
reported-property: concentration at 4 day of withdrawal period (ng/g)

smiles-representation: CN(C)[C@@H]1C(O)=C(C(N)=O)C(=O)[C@@]2(O)C(O)=C3C(=O)c4c(O)cccc4[C@@](C)(O)[C@H]3[C@H](O)[C@@H]12
value-observed: 971
